# STUDY TARGET: MMP-2 (Homo sapiens)
# Construct: made in house; provided by Dr. Gregory Goldberg, Washington University
# Sequence (P08253 110-660): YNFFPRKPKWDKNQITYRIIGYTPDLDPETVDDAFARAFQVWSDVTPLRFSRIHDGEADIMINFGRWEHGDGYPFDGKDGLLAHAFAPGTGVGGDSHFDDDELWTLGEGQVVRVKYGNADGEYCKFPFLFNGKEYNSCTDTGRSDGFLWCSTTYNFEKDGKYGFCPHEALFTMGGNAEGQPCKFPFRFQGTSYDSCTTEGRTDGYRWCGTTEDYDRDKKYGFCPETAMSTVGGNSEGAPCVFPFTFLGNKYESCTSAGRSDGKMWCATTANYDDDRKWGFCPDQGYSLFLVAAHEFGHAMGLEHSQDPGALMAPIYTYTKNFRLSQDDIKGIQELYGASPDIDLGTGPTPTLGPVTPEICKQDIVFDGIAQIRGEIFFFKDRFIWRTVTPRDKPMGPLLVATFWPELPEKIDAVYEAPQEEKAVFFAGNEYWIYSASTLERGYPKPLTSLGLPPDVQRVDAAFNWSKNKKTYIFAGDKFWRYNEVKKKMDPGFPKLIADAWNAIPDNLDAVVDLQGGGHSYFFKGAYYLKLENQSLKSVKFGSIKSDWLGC
# ASSAY INFO: biochemical
# EXPERIMENTAL SETUP: recombinant human MMP-2, MCA peptide substrate 4 μM, pH 7.5, room temperature; read-out: MMP-2 IC50
pIC50: −log10 of the molar value.
MEASUREMENT NAME: pIC50

These solved cases illustrate the format of a correct answer.
COCCN1CCC(C(=O)NO)(S(=O)(=O)c2ccc(N3CCC(OCc4ccc(F)cc4C(F)(F)F)CC3)cc2)CC1 = 6.81
C/C=C/CC(=O)C1CCN(c2ccc(S(=O)(=O)C3(C(=O)NO)CCOCC3)cc2)CC1 = 7.38
O=C(NO)C1(S(=O)(=O)c2ccc(N3CCC(OCc4ccc(OC(F)(F)F)cc4)CC3)cc2)CCOCC1 = 6.54
O=C(NO)C1(S(=O)(=O)c2ccc(N3CCC(OCc4ccc(F)c(F)c4)CC3)cc2)CCOCC1 = 6.77
CCCCC(=O)C1CCN(c2ccc(S(=O)(=O)C3(C(=O)NO)CCOCC3)cc2)CC1 = 7.54
O=C(NO)C1(S(=O)(=O)c2ccc(N3CCN(C4CCCC4)CC3)cc2)CCOCC1 = 6.43
N#Cc1ccc(OC2CCN(c3ccc(S(=O)(=O)C4(C(=O)NO)CCOCC4)cc3)CC2)cc1 = 7.92
O=C(NO)C1(S(=O)(=O)c2ccc(N3CC=C(c4ccccc4C(F)(F)F)CC3)cc2)CCOCC1 = 6.00

P = O=C(NO)C1(S(=O)(=O)c2ccc(N3CCC(OCc4ccccn4)CC3)cc2)CCOCC1
Q = O=C(NO)C1(S(=O)(=O)c2ccc(N3CCN(c4cc(C(F)(F)F)ccn4)CC3)cc2)CCOCC1
Problem: Could you check which of P and Q has a smaller value for pIC50? Your answer should be the label of the entry you select.
Solution: P
